Reference source: the supplement of paper PMC5908809

tested on: NK-92 (IL-2 2.5 ng/mL); test: percent inhibition of viability; higher = more inhibition; conditions: 72 h; 10000 nM;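 note: normalised to DMSO-only wells as negative and benzethonium chloride as positive control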
REPORTED PROPERTY: percent inhibition of viability (%)
# number only, unit % dropped from output

{"MOLECULE": "CO[C@H](C(=O)[C@@H](O)[C@@H](C)O)[C@@H]1Cc2cc3cc(O[C@H]4C[C@@H](O[C@@H]5C[C@@H](O)[C@H](O)[C@@H](C)O5)[C@H](O)[C@@H](C)O4)c(C)c(O)c3c(O)c2C(=O)[C@H]1O[C@H]1C[C@@H](O[C@@H]2C[C@@H](O)[C@@H](O[C@@H]3C[C@](C)(O)[C@H](O)[C@@H](C)O3)[C@@H](C)O2)[C@H](O)[C@@H](C)O1 [Plicamycin] (max concentration tested 10000 nM)", "TARGET OF ASSAY": "NK-92 (IL-2 2.5 ng/mL)", "OBS VALUE": 108}
{"MOLECULE": "CCC(C)(C)C(=O)O[C@H]1C[C@@H](C)C=C2C=C[C@H](C)[C@H](CC[C@@H]3C[C@@H](O)CC(=O)O3)[C@H]21 [Simvastatin] (max concentration tested 10000 nM)", "TARGET OF ASSAY": "NK-92 (IL-2 2.5 ng/mL)", "OBS VALUE": -1.54}
{"MOLECULE": "CCC1(c2ccc(N)cc2)CCC(=O)NC1=O (stereo unspecified) [Aminoglutethimide] (max concentration tested 10000 nM)", "TARGET OF ASSAY": "NK-92 (IL-2 2.5 ng/mL)", "OBS VALUE": 11.1}
{"MOLECULE": "Cn1c(CCCC(=O)O)nc2cc(N(CCCl)CCCl)ccc21 [Bendamustine] (max concentration tested 10000 nM)", "TARGET OF ASSAY": "NK-92 (IL-2 2.5 ng/mL)", "OBS VALUE": 24.9}
{"MOLECULE": "O=C(CCCCCCC(=O)Nc1ccccc1)NO [Vorinostat] (max concentration tested 10000 nM)", "TARGET OF ASSAY": "NK-92 (IL-2 2.5 ng/mL)", "OBS VALUE": 107}

The record that follows has no percent inhibition of viability shown yet.
QUERY: Can you look up the measured percent inhibition of viability of Nc1nc(Nc2ccc3c(c2)CC[C@@H](N2CCCC2)CC3)nn1-c1cc2c(nn1)-c1ccccc1CCC2 [BGB324] (max concentration tested 10000 nM) for me?
RESULT: 102
